Listed here are binders together with their documented interaction score.
Molecular target: T1, P11A
T1 chain: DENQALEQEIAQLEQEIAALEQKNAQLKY
Experiment: two-hybrid library CCNG1;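 note: natural log of median RNA to DNA barcode read ratio; higher means stronger binding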

# Binder, interaction score
rows = [
    ("DKNAQLKEENAALEEKIQQLKEKIQALKY [P10A]", 0.405),
    ("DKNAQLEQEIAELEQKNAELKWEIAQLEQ [4H3129-bA]", 0.0953),
    ("DENQALEQEIAQLEQEIAALEQKNAQLKY [P11A]", -0.318),
    ("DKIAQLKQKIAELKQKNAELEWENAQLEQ [4H2931-bA]", 1.31),
]
